What Kd was measured for each of the following?
- target_entity: T1, PUF4 RNA-binding domain (Saccharomyces cerevisiae, UniProt P25339 537-888)
- T1 sequence: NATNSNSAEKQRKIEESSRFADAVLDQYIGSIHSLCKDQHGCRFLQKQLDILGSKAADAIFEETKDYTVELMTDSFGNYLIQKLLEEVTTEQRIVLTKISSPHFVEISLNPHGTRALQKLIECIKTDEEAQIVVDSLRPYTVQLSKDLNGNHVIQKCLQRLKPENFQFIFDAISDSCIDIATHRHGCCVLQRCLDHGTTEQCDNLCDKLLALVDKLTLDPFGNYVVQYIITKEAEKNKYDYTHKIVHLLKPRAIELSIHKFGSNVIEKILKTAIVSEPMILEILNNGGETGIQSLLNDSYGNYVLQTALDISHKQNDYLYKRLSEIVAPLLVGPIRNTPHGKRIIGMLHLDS
- measurement_description: Mg; RNA-MaP; 20 mM Na-HEPES pH 7.4, 30 mM KOAc, 0.75 mM MgCl2, 0.1% Tween-20, 5% glycerol, 0.1 mg/mL BSA, 2 mM DTT; 25 C; 0.0125-409.6 nM protein
- run_parameters: tags: N-His6-TEV cleaved; C-SNAP kept, Cy3B-labelled; label: tethered on chip by stalled RNA polymerase
One number for each entry, in nM.

ACAAACAGUAUAUAUUAGAACAAAC (ssRNA) [Id_ii_S3_P4E.3_K4.2_C4.2_[C-2A]_[T-1G]_H4.2_A4.1_F4.1_T4.2_[T11A]] = 11.3
Ie_S2_P3E.2_K3.1_C3.2_[+-2TCTCT]_H3.1_A3.1_F3.1_T3.2 (ssRNA) RNA: UUUGAUUAAUAUGAUAUCGUUCUUUCUCUCUCUUUGUAUAUAUAUUCUUUCUCGAUAUCAUAUUAAUCUUU = 1.24
Ic_S4_P5E.1_K5.1_C5.1_H5.1_A5.1_[T6A]_[A7C]_F5.1_[T8G]_[T9G]_[A10T]_T5.1 (ssRNA) RNA: UUUGACAACUGAUCGUUCUUUCUUGUAUACGGUUUCUUUCUCGAUCAGUUGUCUUU = 510
UCUCUUUGUAUUAUUCCUAUCUCUU (ssRNA) [Ie_S1_P5E.1_K5.1_C5.1_H5.1_A5.1_F5.1_[+9CCT]_T5.1] = 25.5
UCUCUUUGUAAUUUGUCUCUU (ssRNA) [Ic_S1_P4E.1_K4.1_C4.1_H4.1_A4.1_[T5A]_[A6T]_F4.1_[A9G]_T4.1] = 28.5

# batch: return Kd for each of the 8 binders below
1. UCUCUUGCUGUAUAUAUGUCUCUU (ssRNA) [Id_ii_S1_P3E.2_K3.1_C3.2_[C-2G]_[T-1C]_H3.1_A3.1_F3.1_T3.2_[A10G]]
2. UCUCUUUGUAGUGUUUCUCUU (ssRNA) [Ic_S1_P4E.1_K4.1_C4.1_H4.1_A4.1_[T5G]_[A6T]_[T7G]_F4.1_[A9T]_T4.1]
3. UCUCUUCUCUGUAUAUAUAUCUCUU (ssRNA) [Id_i_S1_P3E.5_K3.1_C3.3_[T-3C]_[C-2T]_[T-1C]_H3.1_A3.1_F3.1_T3.2]
4. Ie_S2_P3E.2_K3.1_C3.2_H3.1_A3.1_F3.1_[+7CTC]_T3.2 (ssRNA) RNA: UUUGAUUAAUAUGAUAUCGUUCUUUCUCUUGUAUAUCUCAUAUUCUUUCUCGAUAUCAUAUUAAUCUUU
5. UCUCUUAUUAUAUUAUUACUUCUCUU (ssRNA) [Id_ii_S1_P5E.3_K5.2_C5.2_[C-2A]_H5.2_A5.1_F5.1_T5.2_[T11C]_[A12T]]
6. UCUCUUCUUGCCUAUAUAUAUCUCUU (ssRNA) [Ie_S1_P3E.2_K3.1_C3.2_H3.1_[+2CC]_A3.1_F3.1_T3.2]
7. UCUCUUUGUAUCUAAUCUCUU (ssRNA) [Ib_S1_P4E.1_K4.1_C4.1_H4.1_A4.1_[A6C]_F4.1_[T8A]_T4.1]
8. Id_ii_S2_P5E.3_K5.2_C5.2_[C-2A]_[T-1C]_H5.2_A5.1_F5.1_T5.2_[T11A]_[A12C] (ssRNA) RNA: UUUGAUUAAUAUGAUAUCGUUCUUUCUACUAUAUUAUUAACUUCUUUCUCGAUAUCAUAUUAAUCUUU

1. 12.4
2. 736
3. 4.39
4. 14
5. 175
6. 1170
7. 49.3
8. 102

# batch: return Kd for each of the 5 binders below
1. Ie_S4_P5E.1_K5.1_C5.1_H5.1_[+1CCCT]_A5.1_F5.1_T5.1 (ssRNA) RNA: UUUGACAACUGAUCGUUCUUUCUUCCCUGUAUUAUUAUUCUUUCUCGAUCAGUUGUCUUU
2. Ic_S2_P5E.1_K5.1_C5.1_H5.1_A5.1_[T5C]_F5.1_[T8A]_[T9A]_[A10T]_T5.1 (ssRNA) RNA: UUUGAUUAAUAUGAUAUCGUUCUUUCUUGUACUAAAUUUCUUUCUCGAUAUCAUAUUAAUCUUU
3. UCUCUUUGUUUUAUAUUAUCUCUU (ssRNA) [Ie_S1_P4E.1_K4.1_C4.1_H4.1_[+3TTT]_A4.1_F4.1_T4.1]
4. UCUCUUAUACACUAUUAGUUCUCUU (ssRNA) [Id_ii_S1_P4E.4_K4.3_C4.2_[C-2A]_H4.3_A4.1_F4.1_T4.2]
5. ACAAACCAUAUAUUAUUACUACAAAC (ssRNA) [Id_ii_S3_P5E.3_K5.2_C5.2_[T-1A]_H5.2_A5.1_F5.1_T5.2_[T11C]_[A12T]]

1: 1.21; 2: 25.3; 3: 32.9; 4: 42.8; 5: 168

# batch: return Kd for each of the 2 binders below
1. Ic_S4_P5E.1_K5.1_C5.1_H5.1_A5.1_[T6C]_[A7T]_F5.1_[T9C]_[A10C]_T5.1 (ssRNA) RNA: UUUGACAACUGAUCGUUCUUUCUUGUAUCUUCCUUCUUUCUCGAUCAGUUGUCUUU
2. Id_ii_S2_P5E.3_K5.2_C5.2_[C-2T]_[T-1A]_H5.2_A5.1_F5.1_T5.2_[A12C] (ssRNA) RNA: UUUGAUUAAUAUGAUAUCGUUCUUUCUUAUAUAUUAUUAUCUUCUUUCUCGAUAUCAUAUUAAUCUUU

1: 17.2; 2: 10.7
